# Test system: CDK3/Cyclin E (Homo sapiens) (UniProt P24864+Q00526);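 further: each figure is a mean percent inhibition of the CDK3/cyclin E complex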
# Sequence (P24864 whole entry, looked up): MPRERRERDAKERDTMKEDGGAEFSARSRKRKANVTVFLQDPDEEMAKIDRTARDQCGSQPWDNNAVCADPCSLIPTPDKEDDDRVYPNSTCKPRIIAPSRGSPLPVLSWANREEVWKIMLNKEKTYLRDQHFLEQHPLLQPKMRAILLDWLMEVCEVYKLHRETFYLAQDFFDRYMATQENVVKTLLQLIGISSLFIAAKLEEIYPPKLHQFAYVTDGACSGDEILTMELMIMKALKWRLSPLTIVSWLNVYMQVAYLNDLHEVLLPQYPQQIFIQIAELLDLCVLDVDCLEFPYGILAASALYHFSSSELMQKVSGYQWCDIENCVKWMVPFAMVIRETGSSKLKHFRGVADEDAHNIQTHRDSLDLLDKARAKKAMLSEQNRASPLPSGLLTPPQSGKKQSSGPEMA
# Sequence (Q00526 whole entry, looked up): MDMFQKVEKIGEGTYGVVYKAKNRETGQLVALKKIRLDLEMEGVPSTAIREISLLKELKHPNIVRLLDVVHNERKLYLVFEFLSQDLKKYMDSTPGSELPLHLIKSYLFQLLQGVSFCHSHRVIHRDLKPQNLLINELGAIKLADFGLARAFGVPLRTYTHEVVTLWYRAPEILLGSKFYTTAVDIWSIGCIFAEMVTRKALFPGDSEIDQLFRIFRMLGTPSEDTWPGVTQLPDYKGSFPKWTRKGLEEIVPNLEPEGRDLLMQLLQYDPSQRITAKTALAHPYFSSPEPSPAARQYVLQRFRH
# Condition set: at 1 µM
Below, each entry is listed alongside its reported inhibition.
A number alone suffices; assume %.

What value of inhibition has been reported for the following molecule? CCn1c(-c2nonc2N)nc2c(C#CC(C)(C)O)ncc(OC[C@@H]3CCCN3)c21
-4.39

Given NS(=O)(=O)c1ccc(N/C=C2\C(=O)Nc3ccc4ncsc4c32)cc1 , state its recorded inhibition.
94.7

Sample CCn1c(-c2nonc2N)nc2c(C#CC(C)(C)O)nc(O[C@@H](CN)c3ccccc3)cc21 — what was its inhibition?
-0.03

Others:
Recorded inhibition of CCn1c(-c2nonc2N)nc2c(C#CCN)ncc(OCCCN)c21 , please.
2.11

Look at this molecule and give its reported inhibition. NS(=O)(=O)c1ccc(-c2ccc3c(NC(=O)C4CC4)n[nH]c3c2)cc1
5.48

I am curious: what inhibition value has been reported for COc1cccc(COc2cc(-n3cnc4ccccc43)sc2C(N)=O)c1 ?
-2.65

Bench note: what inhibition did CCn1c(-c2nonc2N)nc2c(C#CC(C)(C)O)ncc(OCC3CCNCC3)c21 show?
1.62

---

# Test system: Serine/threonine-protein kinase Nek6 (Homo sapiens);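 further: values are mean inhibition of NEK6 from the GSK PKIS screen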
# Condition set: at 1 µM
Quantity kind: inhibition
I'd appreciate it if you included the unit after the number.

Check out these entries, answers already filled in.
What value of inhibition has been reported for the following compound? Fc1ccc(-c2ncn(C3CCNCC3)c2-c2ccnc(Oc3ccccc3)n2)cc1
2.1%

Which inhibition is listed for CCn1c(-c2nonc2N)nc2c(C#CC(C)(C)O)ncc(OC[C@@H]3CCCN3)c21 ?
0.79%

Find the recorded inhibition belonging to NC(=O)c1sc(-n2cnc3cc(C(F)(F)F)ccc32)cc1OCc1ccccc1Br and report it.
-0.03%

State the recorded inhibition for this entry: COc1cc(C=NNc2ncnc3c2cnn3Cc2ccccc2)ccc1O
-3.89%

Would you kindly share the measured inhibition for CCn1c(-c2nonc2N)nc2c(C#CC(C)(C)O)ncc(OCC3CCNCC3)c21 ?
4.94%

Quick one: inhibition for NS(=O)(=O)c1ccc(-c2ccc3c(NC(=O)C4CC4)n[nH]c3c2)cc1 ?
0.35%

Next:
Value lookup for inhibition; key = Cc1cc(-c2ccco2)cc(C)c1/C=C/c1cncc(-c2nn[nH]n2)c1
-0.1%

Look at this compound and give its reported inhibition. CCn1c(-c2nonc2N)nc2c(C#CC(C)(C)O)nc(O[C@@H](CN)c3ccccc3)cc21
-0.92%

Fill in: inhibition of COc1cc2c(cc1Nc1nc(Nc3ccsc3C(N)=O)c3cc[nH]c3n1)N(C(=O)CN(C)C)CCC2 is ___
-0.11%

Entry Nc1nonc1-c1nc2cnccc2n1C1CCCCC1 : reported inhibition = ?
-0.88%

---

# Test system: Epidermal growth factor receptor (Homo sapiens), P00533 [L858R]
# Sequence (P00533 whole entry L858R): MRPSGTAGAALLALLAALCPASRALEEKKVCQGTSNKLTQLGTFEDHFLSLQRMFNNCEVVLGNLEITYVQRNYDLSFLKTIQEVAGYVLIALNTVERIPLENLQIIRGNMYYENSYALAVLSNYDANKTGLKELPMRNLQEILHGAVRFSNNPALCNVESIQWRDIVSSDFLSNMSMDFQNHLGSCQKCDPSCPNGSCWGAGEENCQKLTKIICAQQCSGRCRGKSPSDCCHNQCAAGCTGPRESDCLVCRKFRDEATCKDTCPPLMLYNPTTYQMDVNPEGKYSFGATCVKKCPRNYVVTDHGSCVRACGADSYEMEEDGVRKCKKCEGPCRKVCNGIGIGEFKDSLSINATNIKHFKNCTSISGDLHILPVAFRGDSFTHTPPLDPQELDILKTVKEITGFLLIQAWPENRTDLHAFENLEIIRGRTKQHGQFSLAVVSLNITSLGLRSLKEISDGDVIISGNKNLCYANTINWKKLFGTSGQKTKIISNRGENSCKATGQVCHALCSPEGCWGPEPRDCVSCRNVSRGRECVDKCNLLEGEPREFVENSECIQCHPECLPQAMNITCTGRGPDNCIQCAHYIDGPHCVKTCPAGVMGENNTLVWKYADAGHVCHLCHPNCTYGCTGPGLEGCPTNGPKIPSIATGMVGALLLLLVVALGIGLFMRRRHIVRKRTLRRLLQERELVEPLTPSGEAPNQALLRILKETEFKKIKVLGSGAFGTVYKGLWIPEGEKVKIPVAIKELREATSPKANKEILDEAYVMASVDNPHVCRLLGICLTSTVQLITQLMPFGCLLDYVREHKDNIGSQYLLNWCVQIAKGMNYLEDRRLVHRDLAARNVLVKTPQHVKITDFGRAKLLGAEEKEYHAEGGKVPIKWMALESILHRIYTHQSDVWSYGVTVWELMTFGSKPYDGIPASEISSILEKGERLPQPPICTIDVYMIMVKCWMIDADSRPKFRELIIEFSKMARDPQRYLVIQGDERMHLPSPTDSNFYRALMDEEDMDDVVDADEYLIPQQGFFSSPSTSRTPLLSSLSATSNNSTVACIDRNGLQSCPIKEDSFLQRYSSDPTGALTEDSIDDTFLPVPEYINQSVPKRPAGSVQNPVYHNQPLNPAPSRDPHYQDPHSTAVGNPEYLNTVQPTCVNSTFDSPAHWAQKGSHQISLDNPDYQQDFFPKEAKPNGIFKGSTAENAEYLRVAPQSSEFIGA
# Condition set: at 0.1 µM
Quantity kind: inhibition (%)
Give the value, in units of %, as a plain number.

Quick check: inhibition of CCn1c(-c2nonc2N)nc2c(C#CC(C)(C)O)ncc(OCC3CCNCC3)c21 ?
2.79

Param item = CCn1c(-c2nonc2N)nc2c(C#CCN)ncc(OCCCN)c21 ; retrieve measured inhibition.
2.24

Next:
What measured inhibition goes with Nc1nonc1-c1nc2cnccc2n1C1CCCCC1 ?
0.62

---

# Test system: Serine/threonine-protein kinase PAK 2 (Homo sapiens);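 further: values are mean percent inhibition of PAK2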
# Condition set: at 0.1 µM
Quantity kind: inhibition (%)
API: value field is a number in %; no unit string.

Illustrative cases are given below, each with its answer.
// query inhibition value for entry CCn1c(-c2nonc2N)nc2c(C#CC(C)(C)O)nc(O[C@@H](CN)c3ccccc3)cc21
7.41

Which inhibition value belongs to COc1cccc(-n2ncc3c(N/N=C/c4ccncc4)ncnc32)c1 ?
3.04

Recorded inhibition of Nc1nonc1-c1nc2cnccc2n1C1CCCCC1 , please.
-2.06

Any idea what inhibition was measured for COc1cc2c(cc1Nc1nc(Nc3ccsc3C(N)=O)c3cc[nH]c3n1)N(C(=O)CN(C)C)CCC2 ?
1.88

What measured inhibition goes with COc1cc(C=NNc2ncnc3c2cnn3Cc2ccccc2)ccc1O ?
-2.02

Request the reported inhibition associated with Cc1cc(-c2ccco2)cc(C)c1/C=C/c1cncc(-c2nn[nH]n2)c1
-1.09

Which value of inhibition has been reported for CCn1c(-c2nonc2N)nc2c(C#CCN)ncc(OCCCN)c21 in the records?
-1.05

// below: inhibition requested for another molecule
inhibition for CCn1c(-c2nonc2N)nc2c(C#CC(C)(C)O)ncc(OCC3CCNCC3)c21 ?
2.42
